Give pEC50 for every item shown.
System: CEM cells HIV-1 protection, formazan growth assay
assay overview: NCI AIDS Antiviral Assay
pEC50: −log10 of the molar value.

- CN1C2C=CC(=O)C1C(C#N)C2 (centres undefined): < 3.70
- CC(=O)Nc1cc2cc(NC=C(C#N)C#N)ccc2oc1=O: < 4.43
- CCCO/S(=N\S(=O)(=O)c1ccccc1)c1ccccc1[N+](=O)[O-] (centres undefined): < 3.17

Challenge: Recall the recorded pEC50 for O=C(O)C1C2c3ccccc3C(c3ccccc32)C1C(=O)O (centres undefined) with CEM cells HIV-1 protection, formazan growth assay and state it.
Response given: < 3.07

====

Tested on: CEM cells HIV-1 protection, formazan growth assay
assay overview: NCI AIDS Antiviral Assay
run parameters: measured here: growth of uninfected CEM cells
measurement type: pIC50
Give bare numbers, as −log10 of the molar value.

• COc1ccc(OCc2ccc3nc(-c4ccccc4)c(Cl)nc3c2)cc1 = 4.69
• COc1ccc(CSC2=C(C#N)C(=O)NC3(CCCCC3)S2)cc1 = 3.96
• O=c1c2c(sc3ccccc13)NCN(CCc1ccccc1)C2 = 4.39

Please state, for each entry, its recorded pIC50.
1. N#CC(C#N)=C1CCN2CCCc3cccc1c32
2. CC1=CCC[C@@H]2C1(C)CCC(C)[C@@]2(C)CC1=CC(=O)C=CC1=O (some centres undefined)
3. Clc1ccc(CNNCc2cccc(Cl)c2)cc1
4. CCCCN1CCC(O)(c2cc(C(=O)O)[nH]c2-c2cc(C)no2)C1=O (centres undefined)
5. COc1ccc(NCC(=O)Nn2c(-c3ccccc3)nc3ccccc3c2=O)cc1
6. NNC(=S)NN/C=C(\C=Nc1ccccc1)[N+](=O)[O-]
7. CC(=O)O[C@H]1C[C@@H]2OC3C=C(C)CCC3(C)[C@@]1(C)[C@@]21CO1 (some centres undefined)

Response given:
3.89
4.94
3.99
4.15
4.75
3.81
6.98

====

Tested on: CEM cells HIV-1 protection, formazan growth assay
assay overview: NCI AIDS Antiviral Assay
run parameters: measured here: growth of uninfected CEM cells
Method: The ability of compounds to protect human CEM cells from HIV-1 infection is measured as a screen for new compounds capable of inhibiting the HIV virus. Five concentrations of drug were tested on uninfected and infected cells and cell growth was measured using a soluble formazan assay. […] Compounds that provided at least 50% protection were retested. Compounds that provided at least 50% protection on retest were listed as moderately active. […]
measurement type: IC50

- CC1=NN(C(=O)CC(=O)Nc2cccc(Cl)c2)C(=O)C1N=Nc1ccc(S(N)(=O)=O)cc1 (centres undefined): > 55 µM

Batch: IC50 for all items listed.
1. CCOP(=O)(CC(=O)c1ccccc1)OCC
2. CCC[CH2][Sn]([CH2]CCC)([S]CCS(=O)(=O)O)[S]CCS(=O)(=O)O (tested in a mixture with another compound)
3. Nc1nc(NCC2(CO)CC2)cc(=O)[nH]1
4. Cc1cccc(C)c1NC(=O)CCCC(=O)C(C#N)c1ccc(Cl)cc1 (centres undefined)
5. Nc1[nH]c(=O)[nH]c(=O)c1N=O
6. C/C=C/C=Nc1c(C#N)c2n(c1C(=O)Nc1ccc(OC)cc1)CCC2
7. CN(C)CCCNC(=O)c1cc(NC(=O)c2cc(NC(=O)c3cc(NC(=O)c4ccc(C(=O)Nc5cc(C(=O)Nc6cc(C(=O)Nc7cc(C(=O)NCCCN(C)C)n(C)c7)n(C)c6)n(C)c5)nc4)cn3C)cn2C)cn1C

Response given:
1. > 977 µM
2. > 200 µM
3. > 200 µM
4. > 135 µM
5. > 200 µM
6. > 200 µM
7. > 100 µM

Challenge: Any idea what IC50 was measured for Cc1c2ccccc2nc(CSCCO)[n+]1[O-] ?
Response given: > 200 µM

Reference source: PubChem BioAssay AID179
